Field: growth inhibition. Provide a value for each of the compounds that follow.
experiment: NCI Yeast Anticancer Drug Screen. Data for the cln2 rad14 strain (AID 165);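 further: 0% = growth equal to vehicle treated cultures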; conditions: S. cerevisiae cln2 rad14 strain, at 50.0 µM, stronger effect = higher value
This is part of a sample that, as a whole, favours compounds with a hit. Of some 79,000 tested, about 15% had one in any assay. The source made the active and inactive calls. No stated cut-off is given here; in the data, active means growth inhibition above about 70%; inactive means the rest.

CSc1ccc(NC(=O)Nc2cccc(C(C)=O)c2)cc1	-17.1% (inactive)

For the 5 compounds below, give their growth inhibition values.
1. COC(=O)c1ccccc1NC(=O)Nc1ccccc1
2. CCOC(=O)C(Nc1cc([N+](=O)[O-])ccc1C(=O)N1CCCCC1)(C(=O)OCC)N1CCCCC1
3. O=[N+]([O-])c1ccc(N2CCN=N2)cc1
4. Cc1cc2c(c(C(N)=O)c1C)-c1cccc(Cl)c1C2=O
5. CCCCCCCCCCCCCCCCN1C(=O)C2C(C1=O)C1(Cl)C(Cl)=C(Cl)C2(Cl)C1(Cl)Cl (configuration not stated)

Response line:
-14.9% (inactive)
3.8% (inactive)
2.35% (inactive)
11% (inactive)
-0.65% (inactive)

For the 7 compounds below, give their growth inhibition values.
1. O=C1c2ccccc2C(c2ccccc2)C1c1ccccc1 (configuration not stated)
2. O=[N+]([O-])c1cc(C(F)(F)F)ccc1S(=O)(=O)c1ccccc1
3. CCOC(=O)/C(C)=C(/O)C(=O)OCC
4. Nc1nc(SCc2ccc(F)cc2)c2[nH]cnc2n1
5. CCC(CC)COC(=O)CC(CC(=O)OCC(CC)CC)C(=O)OCC(CC)CC
6. Cc1ccc(C(=O)c2ccc(C)cc2)cc1
7. C/C(=N\O)c1cccs1

Response line:
-16.6% (inactive)
13.7% (inactive)
-7.05% (inactive)
-8.8% (inactive)
-20.1% (inactive)
-3.7% (inactive)
-8.9% (inactive)

For the 8 compounds below, give their growth inhibition values.
1. O=C(NC1CCCN1C(=O)/C=C\c1ccccc1)OCc1ccccc1 (configuration not stated)
2. CC(=O)Oc1ccc(OC(C)=O)c2c(OC(C)=O)ccc(OC(C)=O)c12
3. C=C(C)C(=O)OCC(O)C[N+](C)(C)C (configuration not stated)
4. CC1(C)CC(=O)NC1=O
5. O=[N+]([O-])c1ccc(C(O)(C#CCN2CCCC2)c2ccccc2)cc1 (configuration not stated)
6. CC(=O)OC12CC3CCC4C(CCC5(C)C(C(C)CCCC(C)C)CCC45)C3(C)CC1O2 (configuration not stated)
7. O=C1C(c2ccccc2)=[N+]([O-])c2cc([N+](=O)[O-])ccc21
8. CC(=O)Nc1c(F)cc(F)cc1[N+](=O)[O-]

Response line:
1. -62.5% (inactive)
2. -10.3% (inactive)
3. 11.2% (inactive)
4. -0.2% (inactive)
5. 10.2% (inactive)
6. -1.2% (inactive)
7. 23.2% (inactive)
8. -16.8% (inactive)

Prompt line: Fill in the blank: the reported growth inhibition of Cn1cnc2c1S(=O)(=O)NCN2 is ____.
Response line: -3.2% (inactive)

All values here come from PubChem BioAssay (NCI).
